# ASSAY SYSTEM: T1, biotinylated recombinant mouse IL-12Rβ2 (produced in-house) (mouse, UniProt P97378 24-637, random biotinylated)
# T1 construct: also called mIL-12RB2; mIL12RB2
# T1 sequence: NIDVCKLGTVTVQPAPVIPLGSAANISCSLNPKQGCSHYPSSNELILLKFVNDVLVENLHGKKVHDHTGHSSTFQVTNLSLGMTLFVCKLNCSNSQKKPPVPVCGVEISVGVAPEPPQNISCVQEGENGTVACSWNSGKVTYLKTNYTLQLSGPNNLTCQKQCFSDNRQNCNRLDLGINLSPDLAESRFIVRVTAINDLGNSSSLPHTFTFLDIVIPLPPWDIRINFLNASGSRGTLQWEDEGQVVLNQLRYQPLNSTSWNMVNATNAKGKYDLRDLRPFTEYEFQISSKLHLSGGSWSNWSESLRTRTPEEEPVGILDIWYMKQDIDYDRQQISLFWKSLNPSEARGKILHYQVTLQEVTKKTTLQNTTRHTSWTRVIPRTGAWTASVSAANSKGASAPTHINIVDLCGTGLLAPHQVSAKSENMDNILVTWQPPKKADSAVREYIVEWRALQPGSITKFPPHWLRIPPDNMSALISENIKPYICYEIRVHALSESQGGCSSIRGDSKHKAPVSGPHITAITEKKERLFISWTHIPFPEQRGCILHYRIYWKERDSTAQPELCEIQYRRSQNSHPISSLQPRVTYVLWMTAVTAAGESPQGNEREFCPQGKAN
# ASSAY SUMMARY: ELISA, P.E. VHH on biotinylated mIL-12RB2, signal ratio to control well
ASSAY METRIC: ELISA mIL12RB2/control
// no unit, no text: just the number

Some entries whose results are on file:
[
  {
    "BINDER": "anti-IL-12Rβ2 VHH clone 3CAM1 (VHH, not shown: small tags and cut ends, tested as periplasmic extract) VHH: QVQLQESGGGLVQAGGSLRLSCAASGRTFGSHRMGWFRQAPGQEREFVAAIAWRGGTQYYTDSVKGRFTISRDNANNTVYLQMNSLKPEDAAVYYCVAGEGSSWGDITDPRRYVFWGQGTQVTVSS",
    "ELISA mIL12RB2/control": 3.3
  },
  {
    "BINDER": "anti-IL-12Rβ2 VHH clone 3CAM65 (VHH, not shown: small tags and cut ends, tested as periplasmic extract; also called 20513) VHH: QVQLQESGGGLVQAGGSLRLSCAPSGRTFTTYVMGWFRQAPGKEREFVAHISWSGGRTYYADSVKGRFTISRDNAKNTSYLQMNSLKPEDTAVYYCAAARSDAVRIGYAEGYEYWGQGTQVTVSS",
    "ELISA mIL12RB2/control": 5.98
  },
  {
    "BINDER": "anti-IL-12Rβ2 VHH clone 3CAM57 (VHH, not shown: small tags and cut ends, tested as periplasmic extract; also called 20512; 3CAMS7) VHH: QVQLQESGGGLVQAGGSLRLSCTPSGRTFSTLAMGWFRQAPGKEREVVATISWSGGRTYYASSVKSRFTISRDNAKNTAYLQMNSLRPDDTAVYYCAARGTDYGAYDYWGQGTQVTVSS",
    "ELISA mIL12RB2/control": 47.4
  }
]

Please turn your attention to the following entry.
In: Give the reported ELISA mIL12RB2/control for this binder. anti-IL-12Rβ2 VHH clone 2CAMS52 (VHH, not shown: small tags and cut ends, tested as periplasmic extract; also called 20535; 2CAMSSZ) VHH: QVQLQESGGGLVQPGASLRLSCATSGPTLSTYAMGWFRQAPGKEREVVATISWSGGRVTYVDSVKGRFTISRDNAKNTAYLQMNRLRPDDTAVYTCAARESDYGAYDYWGQGTQVTVSS
Out: 5.41
